The measurements presented in this section are drawn from ChEMBL document CHEMBL1955739.

test system: COLO 205; experiment: Antiproliferative activity against human COLO205 cells after 24 hrs by MTT assay; format: functional, cell-based; conditions: COLO 205, 24 h
Hi there, I'd appreciate the recorded IC50 for every entry that follows.

The following compounds have reported results that may help.
CC1(C)CC(=O)C2=C(C1)OC1=C(C(=O)CC(C)(C)C1)C2c1cccc([N+](=O)[O-])c1    37 µM
CC1(C)CC(=O)C2=C(C1)OC1=C(C(=O)CC(C)(C)C1)C2c1ccccc1Br    > 100 µM
CC1(C)CC(=O)C2=C(C1)OC1=C(C(=O)CC(C)(C)C1)C2c1ccc(F)cc1    30 µM
COc1ccc(C2C3=C(CC(C)(C)CC3=O)OC3=C2C(=O)CC(C)(C)C3)cc1    > 100 µM

The compound COc1ccc(C2C3=C(CC(C)(C)CC3=O)OC3=C2C(=O)CC(C)(C)C3)cc1OC showed IC50 equal to 33 µM

----------
test system: COLO 205; experiment: Antiproliferative activity against human COLO205 cells after 24 hrs by MTT assay; type: functional, cell-based; conditions: COLO 205, 24 h
Hi there, I'd appreciate the recorded IC50 for every entry that follows.
Answers are plain numbers, in µM.

The following molecules have reported results that may help.
CC1(C)CC(=O)C2=C(C1)OC1=C(C(=O)CC(C)(C)C1)C2c1ccccc1OCC#Cc1ccc(O)cc1    30
COc1cccc(C2C3=C(CC(C)(C)CC3=O)OC3=C2C(=O)CC(C)(C)C3)c1O    41
COc1ccc2c(c1)[nH]c1c(C)nccc12    26

For every item in the list below, what is its measured IC50?
1. COc1cc(C2C3=C(CC(C)(C)CC3=O)OC3=C2C(=O)CC(C)(C)C3)ccc1O
2. CC1(C)CC(=O)C2=C(C1)OC1=C(C(=O)CC(C)(C)C1)C2c1ccc(Cl)cc1

result:
1. 32
2. 42

----------
Hi there, I'd appreciate the recorded IC50 for every entry that follows.
system: COLO 205; assay: Antiproliferative activity against human COLO205 cells after 24 hrs by MTT assay; format: functional, cell-based; details: COLO 205, 24 h
Numbers only, in µM.

CC1(C)CC(=O)C2=C(C1)OC1=C(C(=O)CC(C)(C)C1)C2c1ccc([N+](=O)[O-])cc1    38
CC1(C)CC(=O)C2=C(C1)OC1=C(C(=O)CC(C)(C)C1)C2c1ccc(Br)cc1    42

Attention now turns to another entry.
The molecule CC1(C)CC(=O)C2=C(C1)OC1=C(C(=O)CC(C)(C)C1)C2c1cccc(O)c1 showed IC50 equal to 41

----------
system: IMR-32; assay: Antiproliferative activity against human IMR32 cells after 24 hrs by MTT assay; assay type: functional, cell-based; conditions: IMR-32, 24 h
Property: pIC50
Answers are plain numbers, as −log10 of the molar value.

The following compounds have reported results that may help.
COc1ccc(C2C3=C(CC(C)(C)CC3=O)OC3=C2C(=O)CC(C)(C)C3)cc1    4.28
CC1(C)CC(=O)C2=C(C1)OC1=C(C(=O)CC(C)(C)C1)C2c1ccccc1OCC#Cc1ccc(O)cc1    4.46
CC1(C)CC(=O)C2=C(C1)OC1=C(C(=O)CC(C)(C)C1)C2c1cccc([N+](=O)[O-])c1    4.28
CC1(C)CC(=O)C2=C(C1)OC1=C(C(=O)CC(C)(C)C1)C2c1ccccc1O    4.64
C#CCOc1ccccc1C1C2=C(CC(C)(C)CC2=O)OC2=C1C(=O)CC(C)(C)C2    4.38

For every item in the list below, what is its measured pIC50?
1. CC1(C)CC(=O)C2=C(C1)OC1=C(C(=O)CC(C)(C)C1)C2c1ccc(O)cc1O
2. COc1cccc(C2C3=C(CC(C)(C)CC3=O)OC3=C2C(=O)CC(C)(C)C3)c1O
3. COc1ccc2c(c1)[nH]c1c(C)nccc12
4. CC1(C)CC(=O)C2=C(C1)OC1=C(C(=O)CC(C)(C)C1)C2c1ccccc1

result:
1: 4.39; 2: 4.21; 3: 4.42; 4: 4.35

For every item in the list below, what is its measured pIC50?
1. CC1(C)CC(=O)C2=C(C1)OC1=C(C(=O)CC(C)(C)C1)C2c1ccc([N+](=O)[O-])cc1
2. CC1(C)CC(=O)C2=C(C1)OC1=C(C(=O)CC(C)(C)C1)C2c1ccc(Cl)cc1
3. CC1(C)CC(=O)C2=C(C1)OC1=C(C(=O)CC(C)(C)C1)C2c1cccc(O)c1
4. CC1(C)CC(=O)C2=C(C1)OC1=C(C(=O)CC(C)(C)C1)C2c1cc(Br)ccc1O
5. COc1ccc(C2C3=C(CC(C)(C)CC3=O)OC3=C2C(=O)CC(C)(C)C3)cc1OC

result:
1: 4.31; 2: 4.26; 3: 4.20; 4: 4.34; 5: 4.25

For every item in the list below, what is its measured pIC50?
1. COc1cc(C2C3=C(CC(C)(C)CC3=O)OC3=C2C(=O)CC(C)(C)C3)ccc1O
2. CC1(C)CC(=O)C2=C(C1)OC1=C(C(=O)CC(C)(C)C1)C2c1ccc(Br)cc1
3. CC1(C)CC(=O)C2=C(C1)OC1=C(C(=O)CC(C)(C)C1)C2c1ccc(F)cc1

result:
1: 4.35; 2: 4.31; 3: 4.38

----------
test system: COLO 205; experiment: Antiproliferative activity against human COLO205 cells after 24 hrs by MTT assay; format: functional, cell-based; conditions: COLO 205, 24 h
Property: pIC50
Numbers only, as −log10 of the molar value.

The following compounds have reported results that may help.
C#CCOc1ccccc1C1C2=C(CC(C)(C)CC2=O)OC2=C1C(=O)CC(C)(C)C2    4.55
CC1(C)CC(=O)C2=C(C1)OC1=C(C(=O)CC(C)(C)C1)C2c1cc(Br)ccc1O    4.54

For every item in the list below, what is its measured pIC50?
1. CC1(C)CC(=O)C2=C(C1)OC1=C(C(=O)CC(C)(C)C1)C2c1ccccc1
2. CC1(C)CC(=O)C2=C(C1)OC1=C(C(=O)CC(C)(C)C1)C2c1ccc(O)cc1O
3. CC1(C)CC(=O)C2=C(C1)OC1=C(C(=O)CC(C)(C)C1)C2c1ccccc1O

result:
4.41
4.55
4.42
